test system: SAUR 9218; assay: MIC Test Method, standard agar dilution; assay type: cell-based; conditions: agar dilution, Mueller Hinton agar, incubated overnight at 35° C.; lowest concentration that inhibits visible growth; read-out: SAUR 9218 MIC
Measured MIC values are reported for all entries that follow.
Only the number, expressed in µg/mL, is required.

1) Cl.Cn1c(C(=O)Nc2ccc(C#N)cc2C(=O)O)cc2cccc(OCC(O)CNCC(O)c3ccccc3)c21 (stereo not drawn) : 1
2) O=C(Nc1ccc(Br)cc1C(=O)O)c1ccc(-c2cccc(C(F)(F)F)c2)o1 : 16
3) CCCCCn1c(C(=O)Nc2ccc(Br)cc2C(=O)O)cc2ccccc21 : 2
4) N#Cc1ccc(NC(=O)c2cc3cccc(NC(=O)Cc4ccc(-c5ccccc5)cc4)c3[nH]2)c(C(=O)O)c1 : 0.5
5) CCCC(C)Sc1ccc(C(=O)Nc2ccc(C#N)cc2C(=O)O)cn1 (stereo not drawn) : 0.125

Exam item: I'd like to know its MIC. The molecule in question is `O=C(O)c1cc(Br)ccc1NC(=O)c1ncc(C(F)(F)F)cc1Cl`
Marked response: 64

Exam item: I'd like to know its MIC. The molecule in question is `C=CCn1c(C(=O)Nc2ccc(C#N)cc2C(=O)O)cc2ccccc21`
Marked response: 1

Exam item: I'd like to know its MIC. The molecule in question is `COc1ccc2c(C(=O)Nc3ccc(C#N)cc3C(=O)O)noc2c1`
Marked response: 0.5

Exam item: I'd like to know its MIC. The molecule in question is `N#Cc1ccc(NC(=O)c2cc3cccc(NC(=O)Cc4ccc(Cl)cc4Cl)c3[nH]2)c(C(=O)O)c1`
Marked response: 0.25

Exam item: I'd like to know its MIC. The molecule in question is `N#Cc1ccc(NC(=O)c2cc3cccc(NC(=O)c4ccc(-c5ccccc5)cc4)c3[nH]2)c(C(=O)O)c1`
Marked response: 0.5

Exam item: I'd like to know its MIC. The molecule in question is `Cc1sc(C(=O)Nc2ccc(C#N)cc2C(=O)O)cc1S(=O)(=O)N1CCCCCC1`
Marked response: 8

Exam item: I'd like to know its MIC. The molecule in question is `COc1ccccc1-c1cnc(C(=O)Nc2ccc(C#N)cc2C(=O)O)o1`
Marked response: 1

Exam item: I'd like to know its MIC. The molecule in question is `N#Cc1ccc(NC(=O)c2cc3cccc(NC(=O)Cc4cccc(Cl)c4)c3[nH]2)c(C(=O)O)c1`
Marked response: 0.25

Exam item: I'd like to know its MIC. The molecule in question is `N#Cc1ccc(NC(=O)c2cc(SCc3ccccc3)on2)c(C(=O)O)c1`
Marked response: 0.125

Exam item: I'd like to know its MIC. The molecule in question is Cc1sc(C(=O)Nc2ccc(Br)cc2C(=O)O)cc1S(=O)(=O)N1CC2CC1CN2Cc1ccccc1 (stereo not drawn)
Marked response: 16

Exam item: I'd like to know its MIC. The molecule in question is CCOCC(O)COc1cccc2cc(C(=O)Nc3ccc(C#N)cc3C(=O)O)n(C)c12 (stereo not drawn)
Marked response: 0.25

Exam item: I'd like to know its MIC. The molecule in question is COCC(C)NCC(O)COc1cccc2cc(C(=O)Nc3ccc(C#N)cc3C(=O)O)n(C)c12.Cl (stereo not drawn)
Marked response: 1

Exam item: I'd like to know its MIC. The molecule in question is `N#Cc1ccc(NC(=O)c2cncc(-c3ccccc3C(F)(F)F)c2)c(C(=O)O)c1`
Marked response: 2

Exam item: I'd like to know its MIC. The molecule in question is `CCCCCCSc1ccc(C(=O)Nc2ccc(C#N)cc2C(=O)O)nc1`
Marked response: 0.125

* * *

test system: SAUR 9218; test: MIC Test Method, standard agar dilution; type: cell-based; conditions: agar dilution, Mueller Hinton agar, incubated overnight at 35° C.; lowest concentration that inhibits visible growth; read-out: SAUR 9218 MIC
propertyName: log10 MIC (log10 of the value in µg/mL)
Values below are the log10 of the recorded MIC, with µg/mL as the unit.

Completed entries (count: 3):
1. Cn1c(C(=O)Nc2ccc(C#N)cc2C(=O)O)cc2cccc(NC(=O)Cc3ccncc3)c21.O=C(O)C(F)(F)F : 0.00
2. Cn1c(C(=O)Nc2ccc(C#N)cc2C(=O)O)cc2ccc(NS(C)(=O)=O)cc21 : 0.60
3. COc1ccccc1-c1cc(C(=O)Nc2ccc(Cl)cc2C(=O)O)no1 : -0.90

Exam item: I'd like to know its log10 MIC. The compound in question is `CCS(=O)(=O)Nc1cccc2cc(C(=O)Nc3ccc(C#N)cc3C(=O)O)n(C)c12`
Marked response: -0.30

Exam item: I'd like to know its log10 MIC. The compound in question is `N#Cc1ccc(NC(=O)c2cc(CCCC3CCCCC3)on2)c(C(=O)O)c1`
Marked response: -0.60

Exam item: I'd like to know its log10 MIC. The compound in question is `CC(C)(C)O/N=C1\CCn2c(C(=O)Nc3ccc(C#N)cc3C(=O)O)cc3cccc1c32`
Marked response: 0.00

* * *

test system: SAUR 9218; test: MIC Test Method, standard agar dilution; assay type: cell-based; conditions: agar dilution, Mueller Hinton agar, incubated overnight at 35° C.; lowest concentration that inhibits visible growth; read-out: SAUR 9218 MIC
Criterion: MIC strictly less than 0.2 µg/mL. Met: yes (1). Not met: no (0).

Here are 3 compounds together with their reported answers.
1) O=C(Nc1ccc(Br)cc1C(=O)O)c1ccc(SC2CCOCC2)nc1 : no (0)
2) COc1ccc(-c2cnc(C(=O)Nc3ccc(C#N)cc3C(=O)O)cn2)cn1 : no (0)
3) CCCCCCSc1ccc(C(=O)Nc2ccc(Br)cc2C(=O)O)cn1 : yes (1)

Exam item: Dear colleague, could you confirm whether MIC of `Cc1sc(C(=O)Nc2ccc(C#N)cc2C(=O)O)cc1S(=O)(=O)N1CCN(c2ccccc2)CC1` falls below 0.2 µg/mL? Thanks.
Marked response: no (0)

Exam item: Dear colleague, could you confirm whether MIC of `CCNc1ccc2onc(C(=O)Nc3ccc(C#N)cc3C(=O)O)c2c1` falls below 0.2 µg/mL? Thanks.
Marked response: no (0)

Exam item: Dear colleague, could you confirm whether MIC of `Cn1c(C(=O)Nc2ccc(C#N)cc2C(=O)O)cc2cccc(NS(=O)(=O)CS(C)(=O)=O)c21` falls below 0.2 µg/mL? Thanks.
Marked response: no (0)

Exam item: Dear colleague, could you confirm whether MIC of `N#Cc1ccc(NC(=O)c2noc3cc(-c4cccc(CO)c4)ccc23)c(C(=O)O)c1` falls below 0.2 µg/mL? Thanks.
Marked response: yes (1)

Exam item: Dear colleague, could you confirm whether MIC of CCC1CCCCN1S(=O)(=O)c1cc(C(=O)Nc2ccc(C#N)cc2C(=O)O)sc1C (stereo not shown) falls below 0.2 µg/mL? Thanks.
Marked response: no (0)

Exam item: Dear colleague, could you confirm whether MIC of `CN(C)c1ccc2onc(C(=O)Nc3ccc(C#N)cc3C(=O)O)c2c1` falls below 0.2 µg/mL? Thanks.
Marked response: no (0)

Exam item: Dear colleague, could you confirm whether MIC of `N#Cc1ccc(NC(=O)c2csc(-c3cccnc3)n2)c(C(=O)O)c1` falls below 0.2 µg/mL? Thanks.
Marked response: no (0)

* * *

Measured log10(MIC) values are reported for all entries that follow.
system: SAUR 9218; experiment: MIC Test Method, standard agar dilution; type: cell-based; conditions: agar dilution, Mueller Hinton agar, incubated overnight at 35° C.; lowest concentration that inhibits visible growth; read-out: SAUR 9218 MIC
Values below are the log10 of the recorded MIC, with µg/mL as the unit.

Completed entries (count: 5):
1) Cc1cccc2cc(C(=O)Nc3ccc(C#N)cc3C(=O)O)[nH]c12 : 0.30
2) N#Cc1ccc(NC(=O)c2cc3cccc(NC(=O)c4ccc(Br)cc4)c3[nH]2)c(C(=O)O)c1 : -0.60
3) CCC(C)C(=O)Nc1cccc2cc(C(=O)Nc3ccc(C#N)cc3C(=O)O)[nH]c12 (stereo not shown) : 0.00
4) N#Cc1ccc(NC(=O)c2cc(CNCc3ccccc3)on2)c(C(=O)O)c1 : 0.30
5) Cc1sc(C(=O)Nc2ccc(C#N)cc2C(=O)O)cc1S(=O)(=O)N(CC(C)C)CC(C)C : 1.51

Exam item: What measured log10(MIC) is associated with `O=C(O)c1cc(Br)ccc1NC(=O)c1cccc2c1CCN(Cc1ccccc1)S2(=O)=O` on SAUR 9218?
Marked response: 0.90

Exam item: What measured log10(MIC) is associated with `Cc1ccccc1-c1ccc2cc(C(=O)Nc3ccc(C#N)cc3C(=O)O)n(C)c2c1` on SAUR 9218?
Marked response: -0.30

* * *

tested on: SAUR 9218; experiment: MIC Test Method, standard agar dilution; type: cell-based; conditions: agar dilution, Mueller Hinton agar, incubated overnight at 35° C.; lowest concentration that inhibits visible growth; read-out: SAUR 9218 MIC
propertyName: MIC (µg/mL)
Only the number, expressed in µg/mL, is required.

Completed entries (count: 5):
1. Cc1noc(C)c1CSc1ccc(C(=O)Nc2ccc(C#N)cc2C(=O)O)cn1 : 0.5
2. CCCCCCOc1cnc(C(=O)Nc2ccc(C#N)cc2C(=O)O)cn1 : 0.125
3. CN(c1ccc(Cl)cc1)S(=O)(=O)c1cncc(C(=O)Nc2ccc(Br)cc2C(=O)O)c1 : 1
4. Cc1sc(C(=O)Nc2ccc(C#N)cc2C(=O)O)cc1S(=O)(=O)N1CCc2ccccc2C1 : 4
5. Cc1sc(C(=O)Nc2ccc(C#N)cc2C(=O)O)cc1S(=O)(=O)N1CCN(c2ccc([N+](=O)[O-])cc2)CC1 : 4

Exam item: I'd like to know its MIC. The compound in question is `N#Cc1ccc(NC(=O)c2cc3cccc(NC(=O)Cc4ccc(F)cc4)c3[nH]2)c(C(=O)O)c1`
Marked response: 0.25

Exam item: I'd like to know its MIC. The compound in question is `O=C(Nc1ccc(Br)cc1C(=O)O)c1cc(OCc2ccccc2)ccn1`
Marked response: 4

Exam item: I'd like to know its MIC. The compound in question is Cc1sc(C(=O)Nc2ccc(C#N)cc2C(=O)O)cc1S(=O)(=O)N(C)CC(O)c1ccccc1 (stereo not shown)
Marked response: 2

Exam item: I'd like to know its MIC. The compound in question is `N#Cc1ccc(NC(=O)c2cnc(-c3ccccc3F)cn2)c(C(=O)O)c1`
Marked response: 4

Exam item: I'd like to know its MIC. The compound in question is `CC(=O)OCC(=O)Nc1cccc2cc(C(=O)Nc3ccc(C#N)cc3C(=O)O)[nH]c12`
Marked response: 2

Exam item: I'd like to know its MIC. The compound in question is `Cc1sc(C(=O)Nc2ccc(C#N)cc2C(=O)O)cc1S(=O)(=O)N1CCN(c2ccc(F)cc2)CC1`
Marked response: 16

Exam item: I'd like to know its MIC. The compound in question is `CS(=O)(=O)c1ccccc1C(=O)Nc1cccc2cc(C(=O)Nc3ccc(C#N)cc3C(=O)O)[nH]c12`
Marked response: 4

Exam item: I'd like to know its MIC. The compound in question is `Cc1sc(C(=O)Nc2ccc(C#N)cc2C(=O)O)cc1S(=O)(=O)N(C)CCC#N`
Marked response: 128

Exam item: I'd like to know its MIC. The compound in question is `N#Cc1ccc(NC(=O)c2cncc(C#Cc3ccccc3)c2)c(C(=O)O)c1`
Marked response: 4

Exam item: I'd like to know its MIC. The compound in question is `O=C(Nc1ccc(Cl)cc1C(=O)O)c1cc(-c2ccc(C(F)(F)F)cc2)on1`
Marked response: 0.5

Exam item: I'd like to know its MIC. The compound in question is `CCCCCSc1nnc(C(=O)Nc2ccc(Br)cc2C(=O)O)o1`
Marked response: 0.25

Exam item: I'd like to know its MIC. The compound in question is `N#Cc1ccc(NC(=O)c2cc(CCCc3ccccc3)on2)c(C(=O)O)c1`
Marked response: 0.125

Exam item: I'd like to know its MIC. The compound in question is `O=C(Nc1ccc(Br)cc1C(=O)O)c1ccc(SC2CCCCC2)nc1`
Marked response: 1
